test: Nile Red efflux blockade in pump-expressing yeast – validation compound set, multiplex, phenotypic, pilot screen (AID 588506);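 further: Nile Red retained in cells so higher fluorescence means more efflux inhibition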; settings: S. cerevisiae pump-expressing triplex, Nile Red efflux flow cytometry; at 10 µM; stronger effect = higher value; the pumps come from Candida albicans
The label True is reserved for efflux inhibition (fraction of control) strictly under 0.1; False covers values equal to or above it.

[[record]]
molecule = "CC(=O)NC(Cc1ccccc1)C(=O)OCC(=O)c1ccccc1 (stereo unspecified)"
class = "True"

[[record]]
molecule = "Cc1ccc(S(=O)(=O)N[C@@H](C)C(=O)N2CCC(C(=O)N3CCC[C@H]3C(=O)O)CC2)cc1"
class = "True"

[[record]]
molecule = "CC1(C)c2ccccc2N2CC(=O)NC21/C=C/c1ccco1 (stereo unspecified)"
class = "True"

[[record]]
molecule = "COc1cc(C(=O)Nc2cccc(-c3nnc(-c4ccco4)o3)c2)ccc1OC(C)=O"
class = "False"


Here's the next entry for you.
(Q) Answer whether the molecule CC(C)c1ccc(/C=C/C(=O)O)cc1 has efflux inhibition (fraction of control) strictly less than 0.1
(A) True

The measured values listed here are drawn from PubChem BioAssay.
